experimental system: E3 ubiquitin-protein ligase Mdm2 (Homo sapiens, UniProt Q00987)
Sequence (Q00987 whole entry, looked up): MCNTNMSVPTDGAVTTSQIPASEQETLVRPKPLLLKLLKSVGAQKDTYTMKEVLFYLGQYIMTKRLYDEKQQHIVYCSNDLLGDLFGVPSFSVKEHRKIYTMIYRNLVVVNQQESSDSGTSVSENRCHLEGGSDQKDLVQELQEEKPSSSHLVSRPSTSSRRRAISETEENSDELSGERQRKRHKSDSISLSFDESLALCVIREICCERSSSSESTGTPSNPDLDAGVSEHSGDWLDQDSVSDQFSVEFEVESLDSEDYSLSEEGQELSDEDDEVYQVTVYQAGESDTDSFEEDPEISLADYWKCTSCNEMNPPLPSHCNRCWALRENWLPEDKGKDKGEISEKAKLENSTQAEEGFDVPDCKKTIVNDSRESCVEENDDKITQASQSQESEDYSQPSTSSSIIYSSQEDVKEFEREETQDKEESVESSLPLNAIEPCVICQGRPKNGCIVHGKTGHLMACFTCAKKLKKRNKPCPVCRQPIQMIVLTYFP
protocol summary: Inhibition of GST-tagged Hdm2 expressed in Escherichia coli harboring integrated p53-Hmd2 protein assessed as blockade of enzyme-p53 interaction by beta-galactosidase assay
settings: concentration not given here
observation type: inhibition (%)

Answered examples (2):
Challenge: State its inhibition on E3 ubiquitin-protein ligase Mdm2 (Homo sapiens, UniProt Q00987): `H-CMFYYI-OH`
Response given: 18

Challenge: Same question for `H-CLWWYM-OH` please.
Response given: 18

a: H-CIWWYM-OH
b: H-CIFYYV-OH
Challenge: Which numeric inhibition is bigger, that of a or that of b ? Record your answer as the label of the chosen record.
Response given: b
